- subject-of-test: kappa opioid receptor (KOR) (Homo sapiens, UniProt P41145)
- Sequence (P41145 whole entry): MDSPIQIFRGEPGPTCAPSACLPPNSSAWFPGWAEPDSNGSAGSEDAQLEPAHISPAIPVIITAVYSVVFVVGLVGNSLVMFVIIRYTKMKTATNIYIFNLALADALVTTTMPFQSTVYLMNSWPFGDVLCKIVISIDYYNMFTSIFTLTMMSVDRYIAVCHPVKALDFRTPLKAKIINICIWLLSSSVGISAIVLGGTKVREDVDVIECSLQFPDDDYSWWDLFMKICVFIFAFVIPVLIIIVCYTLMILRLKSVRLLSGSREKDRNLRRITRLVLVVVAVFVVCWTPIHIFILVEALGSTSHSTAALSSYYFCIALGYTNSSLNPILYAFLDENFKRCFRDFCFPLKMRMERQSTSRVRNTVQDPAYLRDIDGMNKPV
- assay-name: GTP-γ-S binding assay (SPA), antagonist mode, kappa
- Format: biochemical
- condition-parameters: antagonism of agonist US69593 300 nM; membranes; Kb by Cheng-Prusoff equation; read-out: In Vitro Antagonism GTP-γ-S Kb (nM) Kappa
Structures can show the parent of a compound that is named as a salt.
Lab note: anything with Kb below 4 nM is marked True; values at 4 nM or higher are marked False.

• COc1cc(C(N)=O)ccc1Oc1ccc(CNCCC(C)C)s1 [Example 8, hydrochloride] = True
• NC(=O)c1ccc(Oc2ccc(CNCCC3CCCC3)s2)cc1 = True
• NC(=O)c1ccc(Oc2ccc(CNCCc3ccccc3)s2)cc1 = False
• NC(=O)c1ccc(Oc2ccc(CNCCc3cccs3)s2)cc1 = True
• CC(C)CCNCc1ccc(Oc2ccc(C(N)=O)cc2)s1 = True
